# Test system: CAL-12T
# Test Description: relative viability (nuclei count vs DMSO), 5 days (fraction); higher = more cells survive
# Cond: first compound 0.08 µM
Quantity Name: relative viability

* COc1nc(C)cnc1NS(=O)(=O)c1cccnc1-c1ccc(-c2nnco2)cc1 [Zibotentan] + C[C@@H](Oc1cc(-c2cnn(C3CCNCC3)c2)cnc1N)c1c(Cl)ccc(F)c1Cl [Crizotinib] (partner 1 µM) | 0.667
* O=c1cc(-c2cccc3c2Sc2ccccc2S3)oc(N2CCOCC2)c1 + C[C@@H](Oc1cc(-c2cnn(C3CCNCC3)c2)cnc1N)c1c(Cl)ccc(F)c1Cl [Crizotinib] (partner 1 µM) | 0.729
* O=c1cc(-c2cccc3c2Sc2ccccc2S3)oc(N2CCOCC2)c1 + CC(=O)Nc1cccc(-n2c(=O)n(C3CC3)c(=O)c3c(Nc4ccc(I)cc4F)n(C)c(=O)c(C)c32)c1 [Trametinib] (partner 0.02 µM) | 0.297
* COc1nc(C)cnc1NS(=O)(=O)c1cccnc1-c1ccc(-c2nnco2)cc1 [Zibotentan] + COc1cccc2cc(-c3nc([C@H]4CC[C@H](C(=O)O)CC4)n4ncnc(N)c34)[nH]c12 [OSI-027] (partner 0.5 µM) | 0.559
* COc1nc(C)cnc1NS(=O)(=O)c1cccnc1-c1ccc(-c2nnco2)cc1 [Zibotentan] + CC(C)C[C@H](NC(=O)[C@H](Cc1ccccc1)NC(=O)c1cnccn1)B(O)O [Bortezomib] (partner 0.002 µM) | 0.941
* O=c1cc(-c2cccc3c2Sc2ccccc2S3)oc(N2CCOCC2)c1 + Cc1nc(Nc2ncc(C(=O)Nc3c(C)cccc3Cl)s2)cc(N2CCN(CCO)CC2)n1 [Dasatinib] (partner 0.075 µM) | 0.339
* O=c1cc(-c2cccc3c2Sc2ccccc2S3)oc(N2CCOCC2)c1 + O=C(c1cc(Cc2n[nH]c(=O)c3ccccc23)ccc1F)N1CCN(C(=O)C2CC2)CC1 [Olaparib] (partner 8 µM) | 0.77
* COc1nc(C)cnc1NS(=O)(=O)c1cccnc1-c1ccc(-c2nnco2)cc1 [Zibotentan] + CC(=O)Nc1cccc(-n2c(=O)n(C3CC3)c(=O)c3c(Nc4ccc(I)cc4F)n(C)c(=O)c(C)c32)c1 [Trametinib] (partner 0.02 µM) | 0.34
* O=c1cc(-c2cccc3c2Sc2ccccc2S3)oc(N2CCOCC2)c1 + NC(=O)Nc1cc(-c2cccc(F)c2)sc1C(=O)N[C@H]1CCCNC1 [AZD7762] (partner 0.2 µM) | 0.585
* O=c1cc(-c2cccc3c2Sc2ccccc2S3)oc(N2CCOCC2)c1 + CS(=O)(=O)N1CCN(Cc2cc3nc(-c4cccc5[nH]ncc45)nc(N4CCOCC4)c3s2)CC1 [Pictilisib] (partner 1 µM) | 0.31
* O=c1cc(-c2cccc3c2Sc2ccccc2S3)oc(N2CCOCC2)c1 + Cc1cc(Nc2cc(N3CCN(C)CC3)nc(Sc3ccc(NC(=O)C4CC4)cc3)n2)n[nH]1 [Tozasertib] (partner 0.1 µM) | 0.296
* O=c1cc(-c2cccc3c2Sc2ccccc2S3)oc(N2CCOCC2)c1 + Cc1nc(NC(=O)N2CCC[C@H]2C(N)=O)sc1-c1ccnc(C(C)(C)C(F)(F)F)c1 [Alpelisib] (partner 2 µM) | 1.17
